# System: IGROV-1
# measurementProtocol: NCI tumour cell line growth inhibition, 48 h
Calls of active or inactive are those of the source. Cut-off read from the data, not from the text of the source: active = GI50 up to about 1.1 µM and inactive = higher.
Select the matching outcome among yes (active), no (inactive)

Solved cases below.
CN(C)C(=O)c1nnsc1NN=O
no
Cc1cc(NS(=O)(=O)c2ccc(NC(=O)c3cccn4c(=O)c5ccccc5nc34)cc2)no1
no
Cc1ccc([N+](=O)[O-])cc1S(=O)(=O)Nc1ccc(C2=NN(C(=O)c3ccccc3)C(c3cccs3)C2)cc1 (stereo not given)
no
Cn1c(=O)c2c(nc3n(CCCCl)c(=O)ccn23)n(C)c1=O
no
Cc1cc(-c2ccc(C(=O)O)[nH]2)on1
no
COc1c(C)c(C/C=C(\C)CCCCO[Si](c2ccccc2)(c2ccccc2)C(C)(C)C)c(OC)c(OC)c1OC
no

Problem: Status in this test for CCNCCC1(CC)C(=O)NC(=O)NC1=O ?
Solution: no

Problem: // repeat for O=C1Nc2ccc([N+](=O)[O-])cc2/C1=N/NC(=S)Nc1ccc([N+](=O)[O-])cc1 and report
Solution: no

Problem: Then CCN(CC)C(=S)SS(C)(=O)=O ?
Solution: no

Problem: Follow-up entry: COc1cc2c(c(OC)c1OC)-c1ccc(SC)c(=O)cc1C(CC(=O)Oc1ccc(F)cc1)C2 (stereo not given)
Solution: yes

---

# Tested on: SW-620
# measurementProtocol: NCI tumour cell line growth inhibition, 48 h
Active and inactive are the calls of the source. No stated cut-off is given here; in the data, active = GI50 up to about 1.1 µM and inactive = higher.
observable: GI50

ClCCCCCc1c2nc(c(CCCCCCl)c3ccc([nH]3)c(CCCCCCl)c3nc(c(CCCCCCl)c4ccc1[nH]4)C=C3)C=C2
> 100 µM (inactive)
CCN(CC)CCOC(c1ccccc1)c1ccccc1.CCOC(=O)Nc1ccc(S(=O)(=O)OC)cc1.CCOC(=O)Nc1ccc(S(=O)(=O)OC)cc1.Nc1ccc(C(=O)O)c(O)c1
> 100 µM (inactive)
CCN(CCCl)c1cccc(NC(=O)c2ccc(C(=O)Nc3cccc(CN(C)C)c3)cc2)c1
0.034 µM (active)
C[N+](C)(C)CC(=O)N/N=C(/CC1OC(=O)c2ccccc21)c1ccccc1O (stereo not given)
33.4 µM (inactive)

Problem: Fill blank: measured GI50 of the compound Cc1cc(-c2nc3cc(F)c(F)cc3s2)ccc1N is ____.
Solution: > 60.5 µM (inactive)

---

Let's look at some molecules and their measured GI50.
# System: SF-539
# measurementProtocol: NCI tumour cell line growth inhibition, 48 h
The source made the active and inactive calls. Cut-off read from the data, not from the text of the source: active = GI50 up to about 1.1 µM and inactive = higher.

Problem: Query: GI50; subject: CCOC(=O)CC1CCN(C(=O)c2ccccc2)C2Cc3c([nH]c4ccccc34)C12C[N+](=O)[O-] (stereo not drawn)
Solution: > 100 µM (inactive)

---

# Test system: MDA-N
# measurementProtocol: NCI tumour cell line growth inhibition, 48 h
Calls of active or inactive are those of the source. No stated cut-off is given here; in the data, active = GI50 up to about 1.1 µM and inactive = higher.
Please state which outcome applies, choosing from active, inactive

Here are 3 compounds together with their reported answers.
COC(=O)CN(CC(=O)NCCCBr)C1CCCCC1N(CC(=O)OC)CC(=O)OC (centres undefined)
inactive
CCN(CCCl)c1cccc(NC(=O)c2ccc(C(=O)Nc3cccc(CN(C)C)c3)cc2)c1
active
C/C=C(/C)C(=O)O[C@@H]1c2c(C)coc2C[C@H]2CC[C@H](O)[C@H](C)[C@]21C
inactive

Here is the next item to consider.
Problem: Dear all, I need the recorded test outcome for CC1(c2ccc(Cl)s2)CC(c2ccc(Cl)s2)=C(C#N)C(=C(C#N)C#N)N1 (centres undefined) , thank you.
Solution: inactive

Values from ChEMBL document CHEMBL1201862
